- System: estrogen-related receptor alpha (ERRalpha) with PGC-1alpha coactivator, human
- measurement_protocol: qHTS assay to identify small molecule antagonists of the estrogen related receptor signaling pathway with the pleiotropic PPARgamma coactivator (PGC) (AID 1224821); note: nearly all actives have a fitted effect of over 50% in size
- measurement_conditions: ERR/PGC reporter cell line, luciferase, antagonist mode; series mostly up to 46.1 µM
Results filed as inconclusive are left out. Activity calls are given as the source filed them. Calls come from the whole dose curve.
Outcome codes: True = active, False = inactive

{"columns": ["compound", "cat"],
 "data": [
  ["CN(C)CCCc1cc(C(=O)Nc2ccc(-c3ccncc3)cc2)ccc1O", "False"],
  ["C=CCn1c(=O)c2c(nc(-c3ccc(S(=O)(=O)O)cc3)n2C)n(C)c1=O", "False"],
  ["Nc1nc(OCc2ccccc2)c2[nH]cnc2n1", "False"],
  ["COc1ccc(/C=C2\\COc3ccc(C)cc3C2=O)cc1O", "False"],
  ["CCCN(CCc1ccccc1)C1CCc2c(O)cccc2C1 (stereo not drawn)", "False"],
  ["O=C(O)CCc1ccc(NCc2cccc(Oc3ccccc3)c2)cc1", "False"],
  ["CC(C)NC[C@@H](O)c1ccc(O)c(O)c1", "False"],
  ["Nc1cc(Cl)c(NC2=NCCN2)c(Cl)c1", "False"],
  ["CN(C)CCCC1(c2ccc(F)cc2)OCc2cc(C#N)ccc21 (stereo not drawn)", "False"],
  ["CCC(CO)Nc1nc(NCc2ccccc2)c2ncn(C(C)C)c2n1 (stereo not drawn)", "False"],
  ["NC[C@@H]1O[C@H](c2ccccc2)Cc2c1ccc(O)c2O", "False"],
  ["CN=C(N)NCCC[C@H](N)C(=O)O", "False"],
  ["Nc1nc2ccc(Cl)cc2n2c(-c3ccccc3)nnc12", "False"],
  ["NC1CONC1=O (stereo not drawn)", "False"],
  ["O=C1NC(=O)c2cc(Nc3ccccc3)c(Nc3ccccc3)cc21", "True"],
  ["O=C(O)c1cc(=O)c2c(Cl)cc(Cl)cc2[nH]1", "False"],
  ["C=C1C[C@@]23CC[C@H]4[C@@](C)(CCC[C@@]4(C)C(=O)O)[C@@H]2CC[C@]1(O)C3", "False"],
  ["O=C(O)C1CCCN(CCC=C(c2ccccc2)c2ccccc2)C1 (stereo not drawn)", "False"],
  ["Nc1nc2c(cnn2CCc2ccccc2)c2nc(-c3ccco3)nn12", "False"],
  ["O=C(O)/C(=C/c1c(C(=O)O)[nH]c2cc(Cl)cc(Cl)c12)c1ccccc1", "False"],
  ["O=C(O)c1ccccc1Nc1cccc(OCc2ccc3ccccc3n2)c1", "False"],
  ["Cc1nc(N=Nc2cc(S(=O)(=O)O)c3cc([N+](=O)[O-])cc(S(=O)(=O)O)c3c2)c(COP(=O)(O)O)c(C=O)c1O", "False"],
  ["N[C@H](CO)C(=O)O", "False"],
  ["Cc1cc2c(cc1Cl)N(C(=O)Nc1ccnc3ccccc13)CC2", "False"],
  ["O=Nc1c(-c2c(O)[nH]c3ccccc23)[nH]c2ccccc12", "False"],
  ["O=C(Nc1ccncc1)c1cc([N+](=O)[O-])ccc1Cl", "False"],
  ["CC1(C)CCC=[N+]1[O-]", "False"],
  ["c1ccc2c(c1)CC(N1CCN(c3cccc4c3OCCO4)CC1)C2", "False"],
  ["COc1cc(CC(=O)O)ccc1O", "False"],
  ["C[C@H](Cc1ccccc1)Nc1ncnc2c1ncn2[C@@H]1O[C@H](CO)C(O)[C@H]1O (stereo partly drawn)", "False"],
  ["NC(=Nc1ccccc1)NC(=O)c1nc(Cl)c(N)nc1N", "False"],
  ["NC(C(=O)N[C@@H]1C(=O)N2C(C(=O)O)=C(Cl)CS[C@H]12)c1ccccc1 (stereo partly drawn)", "False"],
  ["CC(N)(Cc1ccc(O)cc1)C(=O)O (stereo not drawn)", "False"],
  ["CN(C)c1ccc(/C=C2\\C(=O)Nc3ccccc32)cc1", "False"],
  ["CCNc1nc2c(ncn2[C@H]2C[C@H](O)[C@@H](CO)O2)c(=O)[nH]1", "False"],
  ["O=c1[nH]c2cc([N+](=O)[O-])c([N+](=O)[O-])cc2[nH]c1=O", "False"],
  ["NC(CCCP(=O)(O)O)C(=O)O (stereo not drawn)", "False"],
  ["Cc1ccc(O)c(N=Nc2ccccc2)n1", "False"],
  ["C=CCN1CCc2cc(O)c(O)cc2C(c2ccccc2)C1 (stereo not drawn)", "False"],
  ["Cc1ccc([N+](=O)[O-])cc1S(=O)(=O)N(C)C", "False"],
  ["NOCC(=O)O", "False"],
  ["OC[C@H]1O[C@@H](n2cnc3cncnc32)[C@H](O)[C@@H]1O", "True"],
  ["C[C@H](NC(=O)/C(C#N)=C/c1ccc(O)c(O)c1)c1ccccc1", "False"],
  ["O=C(O)Cc1ccc(O)c(O)c1", "False"],
  ["NCC1OC(OC2C(O)[C@@H](OC3C(O)C(N)CC(N)C3OC3OC(CO)C(O)C(O)C3N)O[C@@H]2CO)C(N)C(O)C1O (stereo partly drawn)", "False"],
  ["S=C(S)N1CCCC1", "True"],
  ["N[C@@H](CC(=O)O)C(=O)O", "False"],
  ["Oc1cc2c(cc1O)CN(C(=S)NCCc1ccc(Cl)cc1)CCC2", "False"]
]}
